# System: K4 kissing-loop RNA reporter;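 further: bound reporter read as fluorescence of individual clusters on recovered sequencing chips by microscopy, with normalized cluster intensities fitted with a binding model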
# protocol-summary: apparent KD of K4 kissing-loop reporter; higher = weaker reporter binding
# reported-conditions: Eterna round: R107; input ligand: theophylline 20 uM
Measured apparent KD of K4 kissing-loop reporter accompanies every entry in the list below.
Report as a plain number; the unit nM is understood.

chain-sequence	unit-annotation	measured-number
GAGCCAGAGGUUGCUGCGGGUUCCAGAGAUACCAGCCGUAUUGAAGGCCCUUGGCAGCUCGAGUGAUGUUCGAGCCGCCUCUGAC [Isquleorve]	nM	108
CUAUCGGUGCCAGUGAUGUUGGUACCGCCACGAGGACCGGUACGGCCGCCACUCGCAUUAGAUGAUCACACAGUGUAUACUGCUA [Aleusorza]	nM	159
AAUGUAAUGACGGCCGCCACUGAUUACCAGUGAUGUUGGUAAAGAACUUUAUAAGUCCUGGAAACCAGGACCGGGUCAACGGUCC [Tryp B Ex t1]	nM	309
AAGGUAUCACCAACUUGUAACAUAGGUGAUACCAGCAUCGAAAGAUGCCCUUGGCAGCACCAACUUGCAGUGAUGUUGCAAGUAA [(T)'-(H)'-(T1)-(T2)-(H1)-(H2)_Design11]	nM	152

// recorded apparent KD of K4 kissing-loop reporter for AGGGUAAGGCGUUAACAUGACACCUGGGAAGGAGCGCGGUACACCGCAGGUAGGUCGCCCAGUGAUGUUGGGUGUAAGUAUGAGU [KL-XArg-A23] : 146

// recorded apparent KD of K4 kissing-loop reporter for UCGGACGCGCACCUAGGCCAAUCCACUGCGAAGGAUAUGCGCGCCAGCAGAAGGUCGUUUUAUGAGUGAUGUUUAGAAACAGCGU [theeternabot_exclusion_KL_FMN_A_25] : 294
